Measured values drawn from PubChem BioAssay (Tox21) for this set.

Tgt: Estrogen receptor (Homo sapiens)
Assay comment: qHTS assay to identify small molecule agonists of the estrogen receptor alpha (ER-alpha) signaling pathway using the BG1 cell line (AID 743079); note: nearly all actives have a fitted effect of over 20% in size
Protocol conditions: BG1Luc4E2 cells, ERE-luciferase agonist, 22 h; series mostly up to 70.3 µM
Inconclusive results are not listed. Calls of active or inactive are those of the source. Calls come from the whole dose curve; as a rule, active = well fitted activation curve with a large enough effect in the repeat runs; inconclusive = weak or mixed curves, or effect the other way; inactive = no such curve, though single readings can be large or run the other way.
Please state which outcome applies, choosing from active, inactive

Consider the following illustrative entries.
Challenge: Any idea what this test logged for CC1CC(CC2CCC(N)C(C)C2)CCC1N (stereo not given) ?
Response given: inactive

Challenge: Called result for Cl/C=C\C[N+]12CN3CN(CN(C3)C1)C2
Response given: inactive

Challenge: Which outcome was assigned to ClCc1ccccc1 in this test?
Response given: inactive

Challenge: // return assay outcome for O=[N+]([O-])C(Br)(CO)CO
Response given: inactive

Challenge: Recorded test outcome, item COC(N)=O
Response given: inactive

Continuing:
Challenge: I would be grateful if you could indicate the recorded call for Cl/C=C\Cl .
Response given: inactive

Challenge: Test call for this compound, please: CCCCCCCCCC(=O)O[C@H]1CC[C@H]2[C@@H]3CCC4=CC(=O)CC[C@@H]4[C@H]3CC[C@]12C
Response given: active

Challenge: For Clc1ccc(C(OCCN2CCCCC2)c2ccccc2)cc1 (stereo not given) , which call appears in the assay record?
Response given: inactive

----------
Assay comment: qHTS assay to identify small molecule antagonists of the thyroid receptor (TR) signaling pathway - cell viability counter screen (AID 743064); note: nearly all actives have a fitted effect of over 50% in size
Protocol conditions: GH3.TRE-Luc viability, CellTiter-Fluor, 24 h; series mostly up to 70.3 µM
Records with an inconclusive call do not appear. The source made the active and inactive calls. Calls follow the shape of the dose curve; as a rule, active = well fitted cell-killing curve with a large enough effect in the repeat runs; inconclusive = weak or mixed curves, or effect the other way; inactive = no such curve, though single readings can be large or run the other way.
# output must be one of label 1 = active, label 0 = inactive

Challenge: // outcome(item) with item = Cc1cc(=O)[nH]o1
Response given: label 0

New cases:
Challenge: Called result for C=CCOC(C)=O
Response given: label 0

Challenge: Any idea what this test logged for NC(=O)C(Cl)(Cl)Cl ?
Response given: label 0

Challenge: // outcome(item) with item = CCOP(=S)(OCC)SCSCC
Response given: label 0

Challenge: I'd appreciate the recorded outcome for CC(C)N(CCC(C(N)=O)(c1ccccc1)c1ccccn1)C(C)C (stereo unspecified) from this test.
Response given: label 0

Challenge: I'd appreciate the recorded outcome for CC(C)(Cl)[N+](=O)[O-] from this test.
Response given: label 0

Challenge: Name the outcome recorded for Clc1ccc(C(OCCN2CCCCC2)c2ccccc2)cc1 (stereo unspecified) in the assay.
Response given: label 1

Challenge: Could you please tell me the result logged for O=Cc1ccc(Cl)cc1Cl in this assay?
Response given: label 0

Challenge: Check the results log: what was the call for CCCC(=O)Cl ?
Response given: label 0

----------
Tgt: Cytochrome P450 2C19 (Homo sapiens)
Assay comment: Cytochrome P450 Family 2 Subfamily C Member 19 (CYP2C19) small molecule antagonists: luciferase reporter qHTS assay (AID 1671197); note: nearly all actives have a fitted effect of over 65% in size
Protocol conditions: P450-Glo CYP2C19 enzyme, luciferin luminescence, 1 h; series mostly up to 115 µM
Results filed as inconclusive are left out. Calls of active or inactive are those of the source. Calls follow the shape of the dose curve; as a rule, active = well fitted inhibition curve with a large enough effect in the repeat runs; inconclusive = weak or mixed curves; inactive = no such curve, though single readings can be large or run the other way.
Could you please pick one outcome from this set? class 1 for active, class 0 for inactive

Past entries and their recorded results:
Challenge: Tell me the assay call for CCOC(=O)[C@]1(c2ccccc2)Oc2ccccc2[C@@H]1N please.
Response given: class 1

Challenge: Dear colleague, could you share the recorded outcome for CC(C)O.CC(C)O.OCCN(CCO)CCO.OCCN(CCO)CCO.[Ti] when you have a moment?
Response given: class 0

Challenge: Dear all, I need the recorded test outcome for COP(=S)(Oc1cc(Cl)c(Br)cc1Cl)c1ccccc1 (stereo unspecified) , thank you.
Response given: class 1

Challenge: Tell me the recorded outcome of this test for Clc1ccc(C2(Cn3cncn3)CC(Br)CO2)c(Cl)c1 (stereo unspecified) .
Response given: class 1

Challenge: What outcome does the record of this test show for CCC(C)(NC(=O)c1cc(Cl)c(C)c(Cl)c1)C(=O)CCl (stereo unspecified) ?
Response given: class 1

Challenge: Per the records of this test, what outcome belongs to CCCCC(O)(Cn1cncn1)c1ccc(Cl)cc1Cl (stereo unspecified) ?
Response given: class 1

Challenge: Per the assay record, what outcome was assigned to COCC(C)N(C(=O)CCl)c1c(C)csc1C (stereo unspecified) ?
Response given: class 1

Challenge: Assay outcome for C=CC[C@]1(O)CC[C@H]2[C@@H]3CCC4=CC(=O)CCC4=C3C=C[C@@]21C : what was it?
Response given: class 1

Challenge: Record lookup: outcome of this test for ClC=C(Cl)Cl ?
Response given: class 0

Challenge: Hi, do you know how CC1CC(CC2CCC(N)C(C)C2)CCC1N (stereo unspecified) came out in this test?
Response given: class 0

With those in mind, consider the next compound.
Challenge: Hi, do you know how COC(=O)C(C)N(C(=O)Cc1ccccc1)c1c(C)cccc1C (stereo unspecified) came out in this test?
Response given: class 1

----------
Assay comment: qHTS assay to identify small molecule antagonists of the androgen receptor (AR) signaling pathway using the MDA cell line - cell viability counter screen (AID 743041; note: nearly all actives have a fitted effect of over 45% in size)
Protocol conditions: MDA-kb2 viability, CellTiter-Fluor, 16 h, cells co-treated with R1881 androgen agonist; series mostly up to 70.3 µM
Results filed as inconclusive are left out. Activity calls are given as the source filed them. The call rests on the fitted dose curve; in most records, active means well fitted cell-killing curve with a large enough effect in the repeat runs; inconclusive means weak or mixed curves, or effect the other way; inactive means flat fitted curve, though single readings scatter.
Valid outcomes are listed here; reply with one: active, inactive

Challenge: Assay outcome for C=CC(=O)OCCCCO : what was it?
Response given: inactive

Challenge: What was the test verdict on N#Cc1ccc(Cl)cc1 ?
Response given: inactive

Now consider a different molecule.
Challenge: Recorded test call requested for C=CC(=O)NCNC(=O)C=C
Response given: inactive

----------
Assay comment: qHTS assay for identifying genotoxic compounds that show differential cytotoxicity against isogenic chicken DT40 cell lines with known DNA damage response pathways - Rad54/Ku70 mutant cell line (AID 743015); note: nearly all actives have a fitted effect of over 60% in size
Protocol conditions: DT40 Rad54/Ku70 mutant viability, CellTiter-Glo, 40 h; series mostly up to 66.8 µM
Records with an inconclusive call do not appear. The source made the active and inactive calls. The call rests on the fitted dose curve; in most records, active means well fitted cell-killing curve with a large enough effect in the repeat runs; inconclusive means weak or mixed curves; inactive means no such curve, though single readings can be large or run the other way.
// allowed return values: True = active, False = inactive

Solved cases below.
Challenge: Given O=C1C(=O)c2cccc3cccc1c23 , state the outcome it received in this test.
Response given: True

Challenge: What is the recorded call for this molecule in the test? CCOC(=O)C(Cl)C(C)=O (stereo not given)
Response given: False

Challenge: I'd appreciate the recorded outcome for CCC(COC(=O)c1cc(OC)c(OC)c(OC)c1)(c1ccccc1)N(C)C (stereo not given) from this test.
Response given: True

Challenge: Field: outcome | Entry: C=CC[C@]1(O)CC[C@H]2[C@@H]3CCC4=CC(=O)CCC4=C3C=C[C@@]21C
Response given: True

Challenge: What did this assay record as the result for CC(C)O.CC(C)O.OCCN(CCO)CCO.OCCN(CCO)CCO.[Ti] ?
Response given: False

Others:
Challenge: Any idea what this test logged for Cc1ccc2ccccc2c1 ?
Response given: False

Challenge: Test call for this molecule, please: COC(=O)C(Br)CBr (stereo not given)
Response given: False

Challenge: Assay outcome for O=[N+]([O-])c1cc(C(F)(F)F)cc([N+](=O)[O-])c1Cl : what was it?
Response given: False

Challenge: Hi, sorry to bother you, what did the test record for C[C@@H]1CC[C@H]2[C@@H](C)C(=O)O[C@@H]3O[C@@]4(C)CC[C@@H]1[C@]32OO4 ?
Response given: True

Challenge: State the result this test recorded for CCCN(CCCl)c1c([N+](=O)[O-])cc(C(F)(F)F)cc1[N+](=O)[O-] .
Response given: False

Challenge: Could you kindly confirm the outcome this assay logged for C=CC(=O)OCC(C)C ?
Response given: False

Challenge: Hello, I am checking results. What call was entered for CCCCc1c(C)nc(NCC)nc1OS(=O)(=O)N(C)C ?
Response given: True

Challenge: For O=S1(=O)OC(c2cc(Br)c(O)c(Br)c2)(c2cc(Br)c(O)c(Br)c2)c2ccccc21 , what call appears in the results of this test?
Response given: True

Challenge: Just curious, what result did Nc1ccc(N=Nc2ccc(-c3ccc(N=Nc4c(S(=O)(=O)O)cc5cc(S(=O)(=O)O)c(N=Nc6ccccc6)c(O)c5c4N)cc3)cc2)c(N)c1 get here?
Response given: False

----------
Assay comment: A CellTox Green Cytotoxicity Assay to monitor cytotoxicity in HepG2 cells - 32 hour (AID 1224883); note: nearly all actives have a fitted effect of over 50% in size; note: potency is the fitted concentration of half-maximal effect
Protocol conditions: CellTox Green fluorescence; series mostly up to 76.8 µM
Results filed as inconclusive are left out. Active and inactive are the calls of the source. Calls come from the whole dose curve; as a rule, active = well fitted activation curve with a large enough effect in the repeat runs; inconclusive = weak or mixed curves; inactive = flat fitted curve, though single readings scatter.
Property measured: Potency

Challenge: # input compound: CCCCCC[N+](=O)[O-] ; wanted: its Potency
Response given: inactive

Challenge: # input compound: C=CC(=O)OCC(C)C ; wanted: its Potency
Response given: inactive

Challenge: Field request: Potency | item: CCCCNP(N)(N)=S
Response given: inactive

Challenge: # lookup: Potency of Cc1ccccc1CCl
Response given: inactive

Challenge: Would you mind telling me what Potency value was observed for CCCC(Cn1cncn1)c1ccc(Cl)cc1Cl (stereo not drawn) ?
Response given: 49 µM (active)

---
Challenge: Which Potency reading was recorded for the compound CCOC(=O)[C@]1(c2ccccc2)Oc2ccccc2[C@@H]1N ?
Response given: inactive

Challenge: Fill in the blank: the reported Potency of C=CCN1CC[C@]23c4c5ccc(O)c4O[C@H]2C(=O)CC[C@@]3(O)[C@H]1C5 is ____.
Response given: inactive

Challenge: What does the data say about its Potency? Entry: Cc1ccc2ccccc2c1
Response given: inactive

Challenge: Reported Potency for O=C(CBr)c1ccccc1 : what is it?
Response given: inactive

Challenge: Query: Potency; subject: Clc1ccc(C2(Cn3cncn3)CC(Br)CO2)c(Cl)c1 (stereo not drawn)
Response given: 34.5 µM (active)

Challenge: Record request: Potency value, item C#CCOC(C(=O)OCCN(C)C)(c1ccccc1)c1ccccc1
Response given: inactive

Challenge: Given Cc1cc(=O)[nH]o1 , state its recorded Potency.
Response given: inactive

Challenge: Quick one: Potency for c1ccc(CN2CCNCC2)cc1 ?
Response given: inactive
